Provenance of the data: the Immune Epitope Database (IEDB)

- measurementTarget: HLA-A*02:01
- assayInfo: IEDB peptide-MHC binding, purified MHC/competitive/radioactivity; bounds were set here for any values at or beyond the usual limits of such assays
- testSettings: source organism: Influenza A virus (A/Puerto Rico/8/1934(H1N1))
pIC50: −log10 of the molar value.

{"sequenceInput": "IMDKNIIL", "pIC50": 4.68}

---

- measurementTarget: HLA-B*40:01
- assayInfo: IEDB peptide-MHC binding, purified MHC/direct/fluorescence; filed as Kd, often an IC50 or EC50 that approximates it; bounds were set here for any values at or beyond the usual limits of such assays
- testSettings: source organism: Influenza A virus (A/Moscow/346/2003(H3N2))

{"sequenceInput": "VETPIRNEW", "measurementTarget": "HLA-B*40:01", "Kd": "≥ 20 µM"}
